Target: Cav1.2 (Homo sapiens)
Construct: expressed in transfected cells; host or cells: HEK293 cell line (Xia, et al., 2004) also expressing Kir2.3
Experiment: Calcium channel block, FLIPR TETRA fluorescence assay in HEK293 cells expressing L-type calcium channels
Type: cell-based
Conditions: pH 7.2; 1 μm compound; 25 mM potassium; read-out: FLIPRIETRA Cav1.2 % Inhibition 1 μm
# if value of inhibition at 30 min, 1 μM reaches 70%, tag Satisfied; if it stays below, tag Not satisfied

CCCC1=C(C(=O)OCC)C(c2ccccc2Cl)C(C#N)=C(SC)N1 (stereo not shown) = Satisfied
COC(=O)C1=C(C)NC(C)=C(C(=O)OC)C1c1cccc(Cl)c1Cl = Satisfied
COc1ccccc1NC(=O)C1=C(C)NC(SC)=C(C#N)C1c1ccccc1Cl (stereo not shown) = Not satisfied

Continue with the molecule presented below.
Query block: Reported inhibition at 30 min, 1 μM at or above 70%? COC(=O)C1=C(C)NC(C)=C(C(=O)OC)C1c1ccc(Cl)c(Cl)c1
Result block: Not satisfied

----------
Target: Cav1.2 (Homo sapiens)
Construct: expressed in transfected cells; host or cells: HEK293 cell line (Xia, et al., 2004) also expressing Kir2.3
Assay: Calcium channel block, FLIPR TETRA fluorescence assay in HEK293 cells expressing L-type calcium channels
Type: cell-based
Settings: pH 7.2; 3 μm compound; 25 mM potassium; read-out: FLIPRIETRA Cav1.2 % Inhibition 3 μm
Response key: Condition met means inhibition at 30 min, 3 μM >= 80%; Condition not met means inhibition at 30 min, 3 μM < 80%.

These recorded examples may help you get a feel for the data.
CCCSC1=C(C#N)C(c2ccccc2Cl)C(C(=O)Nc2ccccc2OC)=C(C)N1 (stereo not drawn) = Condition met
COC(=O)C1=C(C)NC(C)=C(C(=O)OC)C1c1cccc(Cl)c1Cl = Condition not met
CCOC(=O)C1=C(C)NC(C)=C(C(=O)OCC)C1c1ccc([N+](=O)[O-])cc1 = Condition not met

Now consider a different compound.
Query block: Please tell me: is the compound CCCC1=C(C(=O)OCC)C(c2ccccc2Cl)C(C#N)=C(SC)N1 (stereo not drawn) at or over 80% in terms of inhibition at 30 min, 3 μM?
Result block: Condition not met

----------
Molecular target: Cav1.2 (Homo sapiens, UniProt Q13936)
Construct: expressed in transfected cells; host or cells: HEK293 cell line (Xia, et al., 2004) also expressing Kir2.3
Sequence (Q13936 whole entry): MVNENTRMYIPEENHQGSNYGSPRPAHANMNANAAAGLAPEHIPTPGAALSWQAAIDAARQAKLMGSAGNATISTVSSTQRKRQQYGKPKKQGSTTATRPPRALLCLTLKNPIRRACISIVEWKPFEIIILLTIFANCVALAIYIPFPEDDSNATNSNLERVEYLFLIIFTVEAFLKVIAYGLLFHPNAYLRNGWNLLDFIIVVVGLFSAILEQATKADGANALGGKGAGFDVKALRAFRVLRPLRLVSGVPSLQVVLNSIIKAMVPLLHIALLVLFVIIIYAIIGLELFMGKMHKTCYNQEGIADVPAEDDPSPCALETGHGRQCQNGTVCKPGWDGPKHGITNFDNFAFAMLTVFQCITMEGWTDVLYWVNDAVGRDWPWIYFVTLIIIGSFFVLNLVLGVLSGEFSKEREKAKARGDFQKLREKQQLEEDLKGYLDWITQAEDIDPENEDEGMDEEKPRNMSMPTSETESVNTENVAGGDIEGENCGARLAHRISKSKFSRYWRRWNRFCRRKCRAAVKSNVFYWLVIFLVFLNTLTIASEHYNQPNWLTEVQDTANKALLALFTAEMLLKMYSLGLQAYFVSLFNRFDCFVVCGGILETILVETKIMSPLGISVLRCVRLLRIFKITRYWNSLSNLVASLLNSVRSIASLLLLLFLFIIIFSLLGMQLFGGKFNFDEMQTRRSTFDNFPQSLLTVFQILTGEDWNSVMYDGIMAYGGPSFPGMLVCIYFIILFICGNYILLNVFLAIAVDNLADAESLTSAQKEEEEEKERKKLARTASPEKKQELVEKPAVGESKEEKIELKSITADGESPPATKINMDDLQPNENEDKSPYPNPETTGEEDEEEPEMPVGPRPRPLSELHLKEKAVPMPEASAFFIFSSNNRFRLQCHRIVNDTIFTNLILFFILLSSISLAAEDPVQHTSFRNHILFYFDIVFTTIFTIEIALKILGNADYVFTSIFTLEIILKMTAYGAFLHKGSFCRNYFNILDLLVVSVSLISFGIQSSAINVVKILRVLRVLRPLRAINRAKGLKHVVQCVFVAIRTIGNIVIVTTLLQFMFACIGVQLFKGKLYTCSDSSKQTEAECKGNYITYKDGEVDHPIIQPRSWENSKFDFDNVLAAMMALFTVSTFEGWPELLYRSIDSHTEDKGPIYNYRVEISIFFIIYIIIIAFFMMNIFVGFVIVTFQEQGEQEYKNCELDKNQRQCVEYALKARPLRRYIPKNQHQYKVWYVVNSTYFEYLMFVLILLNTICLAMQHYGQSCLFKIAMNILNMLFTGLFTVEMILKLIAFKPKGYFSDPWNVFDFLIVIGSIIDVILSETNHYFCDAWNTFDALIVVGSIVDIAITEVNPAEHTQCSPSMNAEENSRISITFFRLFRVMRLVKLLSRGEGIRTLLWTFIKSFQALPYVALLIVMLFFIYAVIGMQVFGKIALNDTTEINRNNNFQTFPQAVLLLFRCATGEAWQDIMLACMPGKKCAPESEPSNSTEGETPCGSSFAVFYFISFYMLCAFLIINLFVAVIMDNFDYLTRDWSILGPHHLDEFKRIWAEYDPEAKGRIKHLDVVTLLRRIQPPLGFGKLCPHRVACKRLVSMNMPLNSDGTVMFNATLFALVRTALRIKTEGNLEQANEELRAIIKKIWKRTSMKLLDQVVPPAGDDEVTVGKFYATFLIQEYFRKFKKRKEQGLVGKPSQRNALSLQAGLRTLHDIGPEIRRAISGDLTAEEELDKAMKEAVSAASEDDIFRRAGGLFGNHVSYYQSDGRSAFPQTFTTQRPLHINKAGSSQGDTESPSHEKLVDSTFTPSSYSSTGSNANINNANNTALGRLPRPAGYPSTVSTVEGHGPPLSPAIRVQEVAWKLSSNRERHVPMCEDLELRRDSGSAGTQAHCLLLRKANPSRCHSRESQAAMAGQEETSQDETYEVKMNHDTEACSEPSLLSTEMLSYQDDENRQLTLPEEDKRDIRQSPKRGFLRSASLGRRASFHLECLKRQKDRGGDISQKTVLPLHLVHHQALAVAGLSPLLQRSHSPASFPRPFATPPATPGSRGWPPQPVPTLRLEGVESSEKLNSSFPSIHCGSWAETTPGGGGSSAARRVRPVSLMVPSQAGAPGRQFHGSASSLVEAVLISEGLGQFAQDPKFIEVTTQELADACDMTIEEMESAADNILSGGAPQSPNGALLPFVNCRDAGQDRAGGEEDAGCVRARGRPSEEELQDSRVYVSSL
Sequence (P54289 25-946 partner limits assumed): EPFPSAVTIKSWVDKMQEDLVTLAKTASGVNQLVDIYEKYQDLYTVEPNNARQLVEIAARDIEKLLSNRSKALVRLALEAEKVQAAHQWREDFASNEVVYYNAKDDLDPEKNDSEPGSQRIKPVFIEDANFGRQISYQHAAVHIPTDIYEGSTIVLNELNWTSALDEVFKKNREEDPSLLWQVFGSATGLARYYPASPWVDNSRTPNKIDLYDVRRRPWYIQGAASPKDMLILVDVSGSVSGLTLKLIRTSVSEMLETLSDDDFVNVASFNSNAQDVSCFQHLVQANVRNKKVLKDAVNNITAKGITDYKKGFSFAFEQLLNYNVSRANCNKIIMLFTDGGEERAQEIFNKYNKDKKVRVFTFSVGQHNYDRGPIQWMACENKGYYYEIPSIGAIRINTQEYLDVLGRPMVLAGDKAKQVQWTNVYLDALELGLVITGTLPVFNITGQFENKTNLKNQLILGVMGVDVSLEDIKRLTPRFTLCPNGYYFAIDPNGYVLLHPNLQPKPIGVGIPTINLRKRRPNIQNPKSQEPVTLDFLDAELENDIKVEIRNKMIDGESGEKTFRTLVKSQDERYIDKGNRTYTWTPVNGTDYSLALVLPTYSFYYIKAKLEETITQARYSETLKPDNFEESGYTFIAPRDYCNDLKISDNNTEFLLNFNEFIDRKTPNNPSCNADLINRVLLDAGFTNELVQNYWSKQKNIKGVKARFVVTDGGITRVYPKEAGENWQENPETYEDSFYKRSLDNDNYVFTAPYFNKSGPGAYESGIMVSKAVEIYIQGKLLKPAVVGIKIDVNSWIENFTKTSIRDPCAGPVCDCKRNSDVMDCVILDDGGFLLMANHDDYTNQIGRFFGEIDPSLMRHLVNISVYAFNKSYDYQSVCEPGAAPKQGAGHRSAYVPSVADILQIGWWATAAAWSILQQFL
Sequence (P54289 947-1103 partner limits assumed): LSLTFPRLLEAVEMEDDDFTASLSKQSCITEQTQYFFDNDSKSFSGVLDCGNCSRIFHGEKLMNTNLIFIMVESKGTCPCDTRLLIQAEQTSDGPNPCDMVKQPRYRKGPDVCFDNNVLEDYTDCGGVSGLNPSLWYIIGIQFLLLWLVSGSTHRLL
Sequence (Q08289 whole entry partner): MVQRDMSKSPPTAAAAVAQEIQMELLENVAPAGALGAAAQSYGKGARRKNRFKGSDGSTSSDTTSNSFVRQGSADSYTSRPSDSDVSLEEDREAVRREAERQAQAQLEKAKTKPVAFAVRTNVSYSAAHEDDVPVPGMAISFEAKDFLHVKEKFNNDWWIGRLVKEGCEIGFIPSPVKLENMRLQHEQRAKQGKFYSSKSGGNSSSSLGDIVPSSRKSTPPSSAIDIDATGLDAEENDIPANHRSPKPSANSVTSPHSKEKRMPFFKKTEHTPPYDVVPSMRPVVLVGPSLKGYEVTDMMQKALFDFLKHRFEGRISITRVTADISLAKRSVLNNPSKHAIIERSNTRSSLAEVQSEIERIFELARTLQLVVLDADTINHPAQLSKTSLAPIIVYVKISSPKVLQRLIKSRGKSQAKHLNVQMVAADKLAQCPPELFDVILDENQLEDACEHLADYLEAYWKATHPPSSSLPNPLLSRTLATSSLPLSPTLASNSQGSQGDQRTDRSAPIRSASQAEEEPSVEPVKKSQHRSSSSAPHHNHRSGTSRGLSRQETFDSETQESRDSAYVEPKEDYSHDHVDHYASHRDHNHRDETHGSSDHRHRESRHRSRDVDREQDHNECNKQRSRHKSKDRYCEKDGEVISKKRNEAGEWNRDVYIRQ
Assay: Calcium channel block, FLIPR TETRA fluorescence assay in HEK293 cells expressing L-type calcium channels
Format: cell-based
Settings: pH 7.2; 0.3 μM compound; 25 mM potassium; read-out: FLIPRIETRA Cav1.2 % Inhibition 0.3 μM
Please note: 1 (yes) applies when inhibition at 30 min, 0.3 μM is 30% or greater, and 0 (no) applies otherwise.

Please review the entries below; each comes with its answer.
COC(=O)C1=C(C)NC(C)=C(C(=O)OC)C1c1cccc2ccccc12 = 1 (yes)
COC(=O)C1=C(C)NC(C)=C(C(=O)OC)C1c1ccc(Cl)c(Cl)c1 = 1 (yes)
COc1ccccc1NC(=O)C1=C(C)NC(SC)=C(C#N)C1c1ccccc1Cl (stereo not drawn) = 0 (no)

Query block: Check this compound for inhibition at 30 min, 0.3 μM at or above 30%: CCCC1=C(C(=O)OCC)C(c2ccccc2Cl)C(C#N)=C(SC)N1 (stereo not drawn)
Result block: 1 (yes)

Query block: Could you please find out whether C=Cc1ccccc1C1C(C(=O)OC)=C(C)NC(C)=C1C(=O)OC has inhibition at 30 min, 0.3 μM that meets 30% or exceeds it?
Result block: 1 (yes)

Query block: inhibition at 30 min, 0.3 μM >= 30% for CCCSC1=C(C#N)C(c2ccccc2Cl)C(C(=O)Nc2ccccc2OC)=C(C)N1 (stereo not drawn) ?
Result block: 1 (yes)

Query block: Check this compound for inhibition at 30 min, 0.3 μM at or above 30%: C=CCOC(=O)C1=C(C)NC(C)=C(C(=O)OCC=C)C1c1cccc([N+](=O)[O-])c1
Result block: 1 (yes)

----------
Examples of compounds with documented log10(Ki) follow.
Biological target: recombinant rhesus mineralocorticoid receptor (Macaca mulatta)
Construct: made in house; host or cells: insect cells infected with recombinant baculovirus; clarified lysate used
Sequence (A0A5F8ATS5 1-984): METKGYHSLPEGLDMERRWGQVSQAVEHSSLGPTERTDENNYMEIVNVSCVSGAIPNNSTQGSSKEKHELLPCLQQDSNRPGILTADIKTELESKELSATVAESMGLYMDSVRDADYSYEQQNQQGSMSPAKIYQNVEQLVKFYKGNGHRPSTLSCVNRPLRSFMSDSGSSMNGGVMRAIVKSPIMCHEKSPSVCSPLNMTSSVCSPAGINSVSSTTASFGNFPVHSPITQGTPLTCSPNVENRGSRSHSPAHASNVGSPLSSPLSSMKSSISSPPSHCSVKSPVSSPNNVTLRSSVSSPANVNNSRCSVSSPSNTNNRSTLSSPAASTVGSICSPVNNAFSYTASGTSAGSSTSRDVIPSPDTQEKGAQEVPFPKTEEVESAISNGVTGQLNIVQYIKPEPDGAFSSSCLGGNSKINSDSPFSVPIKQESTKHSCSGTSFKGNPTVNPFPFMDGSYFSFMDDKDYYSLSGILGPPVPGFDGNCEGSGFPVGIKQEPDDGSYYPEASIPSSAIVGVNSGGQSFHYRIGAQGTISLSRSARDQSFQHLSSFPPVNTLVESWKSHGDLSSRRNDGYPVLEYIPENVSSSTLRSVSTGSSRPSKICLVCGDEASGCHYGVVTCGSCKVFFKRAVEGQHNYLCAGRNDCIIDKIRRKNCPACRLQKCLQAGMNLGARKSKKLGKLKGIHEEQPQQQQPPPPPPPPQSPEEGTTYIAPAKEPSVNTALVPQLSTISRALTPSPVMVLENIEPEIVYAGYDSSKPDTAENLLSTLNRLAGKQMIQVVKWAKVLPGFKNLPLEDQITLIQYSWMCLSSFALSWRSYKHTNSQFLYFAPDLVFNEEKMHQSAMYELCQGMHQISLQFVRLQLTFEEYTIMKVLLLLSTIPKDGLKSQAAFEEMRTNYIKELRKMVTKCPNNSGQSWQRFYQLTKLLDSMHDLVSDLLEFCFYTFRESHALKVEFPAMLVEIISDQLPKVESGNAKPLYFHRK
Assay: Mineralocorticoid receptor binding affinity, [3H]-aldosterone filter binding assay
Settings: replicate 1; read-out: MRBIND Ki (nM) Rep#1
In our notation, the value equals log10 of Ki in nM.

The cases that follow already have their log10(Ki) on record.
CCCC1=C(C(=O)OCC)C(c2ccccc2Cl)C(C#N)=C(SC)N1 (stereo not drawn) = 1.37
CCSC1=C(C#N)C(c2ccccc2Cl)C(C(=O)Nc2ccccc2OC)=C(C)N1 (stereo not drawn) = 1.95
COC(=O)C1=C(C)NC(C)=C(C(=O)OC)C1c1cccc(Cl)c1Cl = 2.58

// log10(Ki) value for COc1ccccc1NC(=O)C1=C(C)NC(SC)=C(C#N)C1c1ccccc1Cl (stereo not drawn) : 2.40

Consider C=CCOC(=O)C1=C(C)NC(C)=C(C(=O)OCC=C)C1c1cccc([N+](=O)[O-])c1 . Its measured log10(Ki) is 2.67

Memo: CCOc1ccccc1C1C(C#N)=C(SC)NC(C)=C1C(=O)Nc1ccccc1 (stereo not drawn) , reported log10(Ki): 3.06

Per the records, this compound ( COC(=O)C1=C(C)NC(C)=C(C(=O)OC)C1c1cccc2ccccc12 ) has log10(Ki) equal to 1.84

Given item CCOC(=O)C1=C(C)NC(C)=C(C(=O)OCC)C1c1ccc([N+](=O)[O-])cc1 , the value recorded as its log10(Ki) is 2.26

Consider COC(=O)C1=C(C)NC(C)=C(C(=O)OC)C1c1ccc(Cl)c(Cl)c1 . Its measured log10(Ki) is 1.92

For this compound ( CCCSC1=C(C#N)C(c2ccccc2Cl)C(C(=O)Nc2ccccc2OC)=C(C)N1 (stereo not drawn) ), measured log10(Ki) is 1.06

For record C=Cc1ccccc1C1C(C(=O)OC)=C(C)NC(C)=C1C(=O)OC the listed log10(Ki) is 2.76

For this compound ( CCOC(=O)C1=C(C)NC(C)=C(C(=O)OC(C)C)C1c1ccc([N+](=O)[O-])cc1 (stereo not drawn) ), measured log10(Ki) is 1.89

----------
Target: recombinant rhesus mineralocorticoid receptor (Macaca mulatta)
Construct: made in house; host or cells: insect cells infected with recombinant baculovirus; clarified lysate used
Assay: Mineralocorticoid receptor binding affinity, [3H]-aldosterone filter binding assay
Conditions: average of Rep#1 and Rep#2; read-out: MRBIND Ki (nM) Average
Mark each entry Criterion met if its Ki sits below 500 nM, and Criterion not met for all others.

COC(=O)C1=C(C)NC(C)=C(C(=O)OC)C1c1cccc2ccccc12 = Criterion met
C=CCOC(=O)C1=C(C)NC(C)=C(C(=O)OCC=C)C1c1cccc([N+](=O)[O-])c1 = Criterion met

Query block: I wonder whether CCOc1ccccc1C1C(C#N)=C(SC)NC(C)=C1C(=O)Nc1ccccc1 (centres unmarked) has Ki below 500 nM. Can you tell?
Result block: Criterion not met

Query block: For this compound, is Ki lower than 500 nM? CCSC1=C(C#N)C(c2ccccc2Cl)C(C(=O)Nc2ccccc2OC)=C(C)N1 (centres unmarked)
Result block: Criterion met

----------
Entries and their measured inhibition at 30 min, 10 μM follow.
Target: Cav1.2 (Homo sapiens, UniProt Q13936)
Construct: expressed in transfected cells; host or cells: HEK293 cell line (Xia, et al., 2004) also expressing Kir2.3
Test: Calcium channel block, FLIPR TETRA fluorescence assay in HEK293 cells expressing L-type calcium channels
Type: cell-based
Conditions: pH 7.2; 10 μm compound; 25 mM potassium; read-out: FLIPRIETRA Cav1.2 % Inhibition 10 μm
The reply should be a number in %, with the unit left off.

As a guide, the following entries are already answered.
C=Cc1ccccc1C1C(C(=O)OC)=C(C)NC(C)=C1C(=O)OC = 87
CCOC(=O)C1=C(C)NC(C)=C(C(=O)OC(C)C)C1c1ccc([N+](=O)[O-])cc1 (stereo not drawn) = 73
CCCSC1=C(C#N)C(c2ccccc2Cl)C(C(=O)Nc2ccccc2OC)=C(C)N1 (stereo not drawn) = 96
COC(=O)C1=C(C)NC(C)=C(C(=O)OC)C1c1cccc2ccccc12 = 100
CCCC1=C(C(=O)OCC)C(c2ccccc2Cl)C(C#N)=C(SC)N1 (stereo not drawn) = 80

Value of measured inhibition at 30 min, 10 μM for the entry COC(=O)C1=C(C)NC(C)=C(C(=O)OC)C1c1cccc(Cl)c1Cl : 78

Summary for this compound, COC(=O)C1=C(C)NC(C)=C(C(=O)OC)C1c1ccc(Cl)c(Cl)c1 : inhibition at 30 min, 10 μM is 87

So for COc1ccccc1NC(=O)C1=C(C)NC(SC)=C(C#N)C1c1ccccc1Cl (stereo not drawn) , the logged inhibition at 30 min, 10 μM turned out to be 74

CCSC1=C(C#N)C(c2ccccc2Cl)C(C(=O)Nc2ccccc2OC)=C(C)N1 (stereo not drawn) has a reported inhibition at 30 min, 10 μM of 98

C=CCOC(=O)C1=C(C)NC(C)=C(C(=O)OCC=C)C1c1cccc([N+](=O)[O-])c1 yielded inhibition at 30 min, 10 μM of 81

compound CCOC(=O)C1=C(C)NC(C)=C(C(=O)OCC)C1c1ccc([N+](=O)[O-])cc1 , inhibition at 30 min, 10 μM observed: 76

Reported inhibition at 30 min, 10 μM of CCOc1ccccc1C1C(C#N)=C(SC)NC(C)=C1C(=O)Nc1ccccc1 (stereo not drawn) : 82
